- assayed_target: T1, rat calcitonin receptor (rat, UniProt P32214 25-516)
- T1 construct: whole, on cells; Cell membranes of transiently transfected BHK tk'ts 13 cells (Assay VIII); also called rCTR; rCT
- T1 sequence (looked up): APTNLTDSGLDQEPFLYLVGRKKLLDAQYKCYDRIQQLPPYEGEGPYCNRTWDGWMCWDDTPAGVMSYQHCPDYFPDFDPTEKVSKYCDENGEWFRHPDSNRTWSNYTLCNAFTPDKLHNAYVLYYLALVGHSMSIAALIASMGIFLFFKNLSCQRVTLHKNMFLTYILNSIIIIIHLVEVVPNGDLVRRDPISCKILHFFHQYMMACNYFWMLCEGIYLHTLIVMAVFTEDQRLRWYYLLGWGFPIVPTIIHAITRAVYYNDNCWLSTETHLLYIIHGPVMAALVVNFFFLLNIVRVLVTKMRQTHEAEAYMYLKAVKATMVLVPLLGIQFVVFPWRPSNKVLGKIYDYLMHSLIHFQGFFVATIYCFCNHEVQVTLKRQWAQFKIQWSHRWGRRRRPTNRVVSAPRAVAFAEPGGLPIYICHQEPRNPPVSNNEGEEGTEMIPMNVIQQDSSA
- test_name: SPA competition vs 125I-calcitonin, membranes with rat CTR (Assay VIII)
pIC50: −log10 of the molar value.
parameter: pIC50

• KCNTATCATQRLANFLRHSSPNFGAIPSSTNVGSKTY (C20 diacid-gGlu on alpha-amino of the N-terminal residue; Cys2-Cys7 disulfide; C-terminal amide (as human amylin), Acylated analogue of human amylin; also called compound 34) [N^α1-[(4S)-4-carboxy-4-(19-carboxynonadecanoylamino)butanoyl]-[Arg17,Pro21,Pro27,Lys35]-h-amylin] = 7.05
• KCNTATCATQRLANFLRHSSPNFGAIPSSTNVGRNTY (C20 diacid-gGlu on alpha-amino of the N-terminal residue; Cys2-Cys7 disulfide; C-terminal amide (as human amylin), Acylated analogue of human amylin; also called compound 39) [N^α1-[(4S)-4-carboxy-4-(19-carboxynonadecanoylamino)butanoyl]-[Arg17,Pro21,Pro27,Arg34]-h-amylin] = 7.02
• KCNTATCATQRLANFLRHSSPNFGAIPSSTNVGHNTY (C20 diacid-gGlu on alpha-amino of the N-terminal residue; Cys2-Cys7 disulfide; C-terminal amide (as human amylin), Acylated analogue of human amylin; also called compound 40) [N^α1-[(4S)-4-carboxy-4-(19-carboxynonadecanoylamino)butanoyl]-[Arg17,Pro21,Pro27,His34]-h-amylin] = 7.16
